Target: human FRs (KB cells) (Homo sapiens)
Construct: endogenous in cells; host or cells: KB cells
Sequence (P15328 25-234): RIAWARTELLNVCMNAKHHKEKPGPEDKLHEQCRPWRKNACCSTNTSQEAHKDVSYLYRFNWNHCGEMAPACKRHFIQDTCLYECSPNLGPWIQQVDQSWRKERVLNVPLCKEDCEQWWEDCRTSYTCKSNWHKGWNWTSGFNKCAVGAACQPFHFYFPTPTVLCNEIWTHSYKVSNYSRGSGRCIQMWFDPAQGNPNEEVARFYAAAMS
Experiment: Cell-Based Relative Affinity Assay (competition with 3H-FA on adherent KB cells)
Type: binding
Conditions: Table 1; 37° C., 10% serum
Readout name: Fold Weaker Affinity from FA

Examples with answers:
| Molecule | Observed |
| --- | --- |
| C#CCN(Cc1ccc2nc(N)[nH]c(=O)c2c1)c1ccc(C(=O)O)cc1 | 500 |
| C#CCN(Cc1ccc2nc(N)[nH]c(=O)c2c1)c1ccc(C(=O)N[C@@H](CCC(=O)O)C(=O)O)cc1 | 1.0 |
| CN(Cc1cnc2nc(N)[nH]c(=N)c2n1)c1ccc(C(=O)N[C@@H](CCC(=O)O)C(=O)O)cc1 [Methotrexate] | 50 |

Next, consider the following molecule.
Query: // lookup Fold Weaker Affinity from FA for Nc1nc2[nH]cc(CCc3ccc(C(=O)N[C@@H](CCC(=O)O)C(=O)O)cc3)c2c(=O)[nH]1
Reply: 500

Hey, just so you know, these numbers are from patent US10363250B2.
